The reported measurements were obtained from patent US11285142B2.

System: Flp-In T-REx 293 cells expressing delta-E Torsin1a
Assay: Cytotoxicity (cell count, cellular morphology) in the Torsin1a assay cell line
Assay type: cell-based, human
Conditions: Table 6
Procedure: In order to test this model directly, the delta-E Torsin1a cell line was treated with compounds targeting the eIF2-alpha signaling pathway (FIG. 2). […] Efficacy is calculated as the magnitude of the pathology correction relative to the mutant Torsin1a pathology. […]
Where a name gives a salt, the structure may show the parent alone.
Cytotox Efficacy by entry:
Readout Type: Cytotox Efficacy

Compound	Test Result
Cc1c(O)cccc1C(=O)N[C@@H](CSc1ccccc1)[C@H](O)CN1C[C@H]2CCCC[C@H]2C[C@H]1C(=O)NC(C)(C)C [Viracept]	−106.32
Cc1cccc(C)c1OCC(=O)N[C@@H](Cc1ccccc1)[C@@H](O)C[C@H](Cc1ccccc1)NC(=O)[C@H](C(C)C)N1CCCNC1=O [Lopinavir, lopinavir]	−69.87
CC(C)(C)NC(=O)[C@@H]1CN(Cc2cccnc2)CCN1C[C@@H](O)C[C@@H](Cc1ccccc1)C(=O)N[C@H]1c2ccccc2C[C@H]1O [Indinavir sulfate]	−80.64
CS(=O)(=O)O.Cc1c(O)cccc1C(=O)N[C@@H](CSc1ccccc1)[C@H](O)CN1C[C@H]2CCCC[C@H]2C[C@H]1C(=O)NC(C)(C)C.O [Nelfinavir mesylae hydrate]	−98.05
Cc1cccc(C)c1OCC(=O)NC(CCC(Cc1ccccc1)NC(=O)C(C(C)C)N1CCCNC1=O)Cc1ccccc1 (centres unmarked) [Des-hydroxy Lopinavir]	−77.66
